- Test system: TAG
- testDescription: TAG lipid buildup inhibition with viability readout – cell-based, panel, Nile Red and DAPI fluorescence, H9c2, dose response (AID 651630);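 further: cells exposed to compound overnight before fixation and staining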
- measurementContext: H9c2 cells, Nile Red TAG fluorescence, oleic acid, mean of runs
Activity calls are given as the source filed them.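 How the source made its calls: active means lipid-stain IC50 at or below a set limit, with nuclear-stain toxicity IC50 at least five times higher; inactive means the rest.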
Your answer must be one of the following: active, inactive

Look over these answered cases.
COc1ccc(Nc2cc(=O)oc3ccccc23)cc1: inactive
Nc1c(C(=O)NCc2ccccc2)sc2nc(N3CCOCC3)c3c(c12)CCCC3: inactive
CCN(CC)CCn1c(SCC(=O)Nc2cccc(OC)c2)nc2c(sc3ccccc32)c1=O: active
COC(=O)C1=C(C)N(Cc2ccccc2)C(=NCc2cc(OC)c(OC)c(OC)c2)N[C@H]1c1ccc(Br)cc1: inactive
CCOC(=O)CSc1cccc2cccnc12: inactive

Request: Entry CCOc1cc(CNC(C)(C)C)ccc1OCC(=O)Nc1cccc(C(F)(F)F)c1 : call = ?
Result: inactive

Request: Now consider CN(C)CC(O)c1ccc(C=Cc2ccc(Cl)cc2)cc1 (stereo unspecified) and answer again.
Result: active

Request: Now consider COc1ccc(-c2nc3ccc(Cl)cn3c2NC2CCCCC2)cc1SC1CCCCC1 and answer again.
Result: active

Request: Now consider CCOc1ccc(Cc2nnc(SCC(=O)Nc3ccccc3)n(N)c2=O)cc1 and answer again.
Result: active

Request: Now consider C[C@@H]1CN([C@@H](C)CO)C(=O)c2cccc(NC(=O)C3CCCCC3)c2O[C@@H]1CN(C)Cc1ccc(Cl)c(Cl)c1 and answer again.
Result: active

---

- Tested on: DAPI
- testDescription: TAG lipid buildup inhibition with viability readout – cell-based, panel, Nile Red and DAPI fluorescence, H9c2, dose response (AID 651630);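 further: cells exposed to compound overnight before fixation and staining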
- measurementContext: H9c2 cells, DAPI nuclear fluorescence (cytotoxicity counter-readout), oleic acid, mean of runs
Activity calls are given as the source filed them.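 The calls were made as follows: active = lipid-stain IC50 at or below a set limit, with nuclear-stain toxicity IC50 at least five times higher; inactive = the rest.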
Form field: IC50 cytotoxicity (DAPI nuclear signal decrease) (one value per entry).

Previously resolved entries follow.
CCc1cc2c3c(c1)C1(C(=O)N3C(C)(C)C=C2C)C(C#N)=C(N)Oc2[nH]c(=O)[nH]c(=O)c21 (stereo not given): > 25 µM (inactive)
CCN1C(=O)[C@H]2[C@@H](c3ccc(-c4cccc(Cl)c4)cc3)N[C@@](Cc3ccccc3)(C(=O)OC)[C@H]2C1=O: > 25 µM (inactive)
Nc1c(Cl)cc(-c2csc(N3CCCC3c3nc4cc(Cl)c(N5CCCCC5)cc4n3CCOCCO)n2)cc1Cl (stereo not given): > 25 µM (inactive)
COc1ccc(CCn2c(-n3nc(C)cc3C)nc3c2c(=O)[nH]c(=O)n3C)cc1: > 25 µM (inactive)
COc1cc2c(c(OC)c1OC)-c1ccc(OC)c(=O)cc1C(NC(=O)c1ccccc1)CC2 (stereo not given): > 25 µM (inactive)

Request: Fill in: IC50 cytotoxicity (DAPI nuclear signal decrease) of CC1(C(=O)NCc2ccco2)Cc2c(-c3ccc4c(c3)OCO4)ccnc2O1 (stereo not given) is ___
Result: > 25 µM (inactive)

Request: Now consider CN(Cc1ccccc1)C(=O)c1ccc(Nc2nc(C(N)Cc3ccccc3)cs2)nc1 (stereo not given) and answer again.
Result: > 25 µM (inactive)

Request: Now consider CCCCc1ccc(N=N/C(C(=O)Nc2cc(OC)c(NC(C)=O)cc2OC)=C(/C)O)cc1 and answer again.
Result: > 25 µM (inactive)

Request: Now consider O=C(CC1C[C@H](C(=O)N2CCOCC2)[C@@]2(CCC3CCCC3)c3[nH]c4ccccc4c3CCN2C1=O)NCC12CC3CC(CC(C3)C1)C2 (stereo not given in full) and answer again.
Result: > 25 µM (inactive)

Request: Now consider CC1(C(=O)Nc2ccc3c(c2)OCO3)Cc2c(-c3cccc(C(N)=O)c3)ccnc2O1 (stereo not given) and answer again.
Result: > 25 µM (inactive)

FYI, the data here is from PubChem BioAssay AID651630.
